Tested on: OVCAR-3
Assay: NCI tumour cell line growth inhibition, 48 h
Activity calls are given as the source filed them. Cut-off read from the data, not from the text of the source: active = GI50 up to about 1.1 µM and inactive = higher.
Field: GI50. Provide a value for each of the molecules that follow.

# returns recorded GI50 (system: OVCAR-3) for CN1Cc2c(nc(-c3ccc(Br)cc3)c[n+]2[O-])N(C)C1
> 100 µM (inactive)

Recorded GI50 for O=C(CC(=O)N1N=C(c2ccccc2)C(/N=N/c2ccc(Cl)cc2)C1=O)Nc1ccccc1Cl (stereo not drawn) with OVCAR-3, please?
24.3 µM (inactive)

Request - read-out GI50 | tested on OVCAR-3 | molecule NS(=O)(=O)c1c(O)c2ccccc2oc1=O
> 100 µM (inactive)

---

Assign GI50 to each entry below.
Test system: HOP-62
Experiment: NCI tumour cell line growth inhibition, 48 h
Active and inactive are the calls of the source. Cut-off read from the data, not from the text of the source: active = GI50 up to about 1.1 µM and inactive = higher.

Give the measured GI50 of O=S1(=O)c2ccccc2N2CCCc3cc(Cl)cc1c32 .
41.1 µM (inactive)

Which GI50 value belongs to O=C1CC(=O)c2c(Cl)sc(Cl)c21 ?
> 100 µM (inactive)

Consider the compound shown here: O=C1CC(n2ccnc2)c2c(Cl)sc(Cl)c21 (stereo not given) What is its recorded GI50?
18.7 µM (inactive)

Requested field: GI50. Item: NC(=S)N/N=C1\CCCC\C1=C/c1ccccc1
> 100 µM (inactive)

Returns the measured GI50 for the input compound. Input: Nc1nc(N)c(NC(=O)CCCO)c(=O)[nH]1
> 100 µM (inactive)

---

System: KM-20L2
Assay: NCI tumour cell line growth inhibition, 48 h
Active and inactive are the calls of the source. Rule as the data show it: active = GI50 up to about 1.1 µM and inactive = higher.
Bench note: report the call from active, inactive

Write down the call the test reported for this compound. Item: CCN(CC)C(=S)S [DITIOCARB SODIUM]
inactive

Identify the outcome logged in this assay for the compound shown: CC(=O)NC1=C(NCCC(C)C)C(=O)c2ccccc2C1=O
inactive

State the result this test recorded for NC(CCC(=O)NC(CSSCCCCS(=O)O)C(=O)NCC(=O)O)C(=O)O (stereo unspecified) .
inactive

Tell me the assay call for O=C(CO[N+](=O)[O-])OC/C=C/c1ccccc1 please.
inactive

How did this test come out for CC1OC(O[C@@H]2C=C3CC[C@@H]4[C@H](CC[C@]5(C)[C@@H](c6ccc(=O)oc6)CC[C@]45O)[C@@]3(C)CC2)C(O)C(OC2OC(CO)C(O)C(O)C2O)C1O (stereo partly specified) ?
active

Check the results log: what was the call for CCOC(=O)c1ncn2c1[nH]c(=S)c1ccccc12 ?
inactive

---

Please respond with reported GI50 for every item in the list.
System: SF-268
Experiment: NCI tumour cell line growth inhibition, 48 h
The source made the active and inactive calls. Rule as the data show it: active = GI50 up to about 1.1 µM and inactive = higher.

Value lookup for GI50; key = CCN(CC)CCN1C(=O)c2cccc3cc(N)cc(c23)C1=O
12.6 µM (inactive)

Quick check: GI50 of O=C(N/N=C\c1ccccc1)Nc1cccc2ccccc12 ?
57 µM (inactive)

What GI50 value was documented for this compound, CC(C)(C(=O)NN)c1ccccc1 ?
45.3 µM (inactive)

I would be grateful if you could share the reported GI50 for COc1cc(C2=C(C#N)C(N)OC3=C2COc2ccccc23)cc(OC)c1OC (stereo not drawn) .
14.9 µM (inactive)

Returns the measured GI50 for the input compound. Input: CC1(C)CCOC(Sc2ccccc2)C1 (stereo not drawn)
> 100 µM (inactive)

Entry CCN1C(NN)=NS(=O)(=O)c2ccccc21 : reported GI50 = ?
> 100 µM (inactive)

Entry O=C(O)Cc1ccc(Oc2nc3ccccc3nc2-c2cccs2)cc1 has what GI50?
66.4 µM (inactive)

Which GI50 value is on record for COc1ccc(C2C(Cl)C(=O)N2NC(=O)c2ccccc2O)cc1OC (stereo not drawn) ?
54.2 µM (inactive)
